- target: hTRPC5 (Homo sapiens, UniProt Q9UL62)
- Sequence (Q9UL62 whole entry): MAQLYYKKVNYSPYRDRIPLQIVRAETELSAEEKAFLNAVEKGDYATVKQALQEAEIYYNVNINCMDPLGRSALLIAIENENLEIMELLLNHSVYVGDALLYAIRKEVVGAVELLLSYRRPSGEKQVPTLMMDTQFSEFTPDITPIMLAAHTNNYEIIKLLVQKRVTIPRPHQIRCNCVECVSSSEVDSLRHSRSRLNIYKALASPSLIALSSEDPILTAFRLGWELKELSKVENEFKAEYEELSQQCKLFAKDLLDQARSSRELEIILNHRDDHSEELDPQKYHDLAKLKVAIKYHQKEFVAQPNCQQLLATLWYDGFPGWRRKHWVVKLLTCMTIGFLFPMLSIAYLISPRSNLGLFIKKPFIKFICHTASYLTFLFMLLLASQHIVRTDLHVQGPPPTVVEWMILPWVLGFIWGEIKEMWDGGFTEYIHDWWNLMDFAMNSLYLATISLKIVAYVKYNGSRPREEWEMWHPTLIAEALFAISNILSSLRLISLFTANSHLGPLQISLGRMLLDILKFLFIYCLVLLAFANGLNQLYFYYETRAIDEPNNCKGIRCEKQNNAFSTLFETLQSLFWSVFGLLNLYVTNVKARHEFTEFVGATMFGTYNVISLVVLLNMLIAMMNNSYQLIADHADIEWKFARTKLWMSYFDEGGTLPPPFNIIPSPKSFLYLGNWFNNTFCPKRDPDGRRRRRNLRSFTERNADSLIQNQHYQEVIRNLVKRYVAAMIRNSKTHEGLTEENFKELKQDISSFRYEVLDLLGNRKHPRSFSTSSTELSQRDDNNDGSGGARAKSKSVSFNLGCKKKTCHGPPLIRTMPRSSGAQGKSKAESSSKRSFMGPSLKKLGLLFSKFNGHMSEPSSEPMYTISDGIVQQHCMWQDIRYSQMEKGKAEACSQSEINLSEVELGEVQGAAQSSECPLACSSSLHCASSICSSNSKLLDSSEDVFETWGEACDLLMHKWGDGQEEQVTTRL
- protocol-details: TRPC5 inhibitory activity assay (FLIPR calcium flux, Fluo-4, agonist Englerin A)
- assay-conditions: HEK-293 cells expressing hTRPC5; agonist Englerin A 0.3 nM
Consider the following molecules and their measured log10 IC50 readings.
// units: nM (pre-log); metric: IC50; scale: log10

>  <molecule>
[N-]=[N+]=NC(c1ccc(F)cc1C(F)(F)F)c1cnc2n1CCN(c1cn[nH]c(=O)c1Cl)C2 (stereo not shown)

>  <readout-name>
log10 IC50

>  <experimental-value>
1.39

$$$$
>  <molecule>
[N-]=[N+]=NC(c1cc(F)ccc1Cl)c1cnc2n1CCN(c1cn[nH]c(=O)c1Cl)C2 (stereo not shown)

>  <readout-name>
log10 IC50

>  <experimental-value>
1.57

$$$$
>  <molecule>
O=C(c1ccc(F)cc1C(F)(F)F)c1nnc2n1CCN(c1cn[nH]c(=O)c1Cl)C2

>  <readout-name>
log10 IC50

>  <experimental-value>
2.16

$$$$
>  <molecule>
COC(c1cc(F)ccc1Cl)c1cnc2n1CCN(c1cn[nH]c(=O)c1Cl)C2 (stereo not shown)

>  <readout-name>
log10 IC50

>  <experimental-value>
1.78

$$$$
>  <molecule>
C=C(c1cc(F)ccc1Cl)c1cnc2n1CCN(c1cn[nH]c(=O)c1Cl)C2

>  <readout-name>
log10 IC50

>  <experimental-value>
0.72

$$$$

Ask: Given the molecule `O=c1[nH]ncc(N2CCn3c(Cc4ccc(F)cc4C(F)(F)F)cnc3C2)c1Cl` , what is its reported log10 IC50?
Result: 1.02

Ask: Sample CC(c1ccc(F)cc1Cl)c1cnc2n1CCN(c1cn[nH]c(=O)c1Cl)C2 (stereo not shown) — what was its log10 IC50?
Result: 1.26
